Test system: MTT (mouse pheochromocytoma)
Experiment: efficacy (maximal response) relative to doxorubicin = -100% and DMSO = 0%; higher = less inhibition of viability
Settings: (24 or 48 h)
Counter-ions that a name gives are not always drawn.
As shown below, each of these compounds has a reported efficacy value.
The response must be a number in % with no trailing unit.

CN1CC[C@@H]([C@@H](O)C1)C2=C(O)C=C(O)C3=C2O\C(=C/C3=O)C4=C(Cl)C=CC=C4 [Flavopiridol hydrochloride hydrate]; -71.3
O=S(=O)([O-])c1cc(O)c2c(/N=N/c3ccc(Nc4ccccc4)c4c(S(=O)(=O)[O-])cccc34)cc(S(=O)(=O)[O-])cc2c1 [ANAZOLENUM NATRICUM]; -33.8
CCCCCCCCCCCCCCCCOCCOCCOCCOCCOCCOCCOCCOCCOCCOCCOCCOCCOCCOCCOCCOCCOCCOCCOCCOCCO [CETOMACROGOL EMULSIFYING WAX]; -80.5
C=C(C)[C@H]1Cc2c(ccc3c2O[C@@H]2COc4cc(OC)c(OC)cc4[C@@H]2C3=O)O1 [Rotenone]; -124

Fill blank: measured efficacy of the compound CC(C)OC(=O)Nc1ccc2[nH]c(-c3cscn3)nc2c1 [CAMBENDAZOLE] is ____.
-45.2

Request the reported efficacy associated with CCCCCCCCCCCC[N+](C)(C)CCOc1ccccc1 [Domiphen bromide]
-99.3

Endpoint output: efficacy of NC/1=N/C(S)C/2\N=C/NC2=N1 (stereo not given) [6-Thioguanine (6-TG)] . Value?
-78.6

Would you mind telling me what efficacy value was observed for CCN1/C(=C/C=C/c2ccc3ccccc3[n+]2CC)C=Cc2ccccc21 [Quinaldine blue] ?
-34.9

Any idea what its efficacy is? The compound is CC(C)COC(=O)OCN1C(=O)CN(CCN2CC(=O)N(COC(=O)OCC(C)C)C(=O)C2)CC1=O [Sobuzoxane]
-56.1

Given CCOC(=O)c1c(N)sc2c1CCN(Cc1ccccc1)C2 [TINORIDINE HYDROCHLORIDE] , state its recorded efficacy.
-45.5

May I ask what efficacy has been recorded for O=c1n(CC2CO2)c(=O)n(CC2CO2)c(=O)n1CC1CO1 (stereo not given) [TEROXIRONUM] ?
-43.7

Fill blank: measured efficacy of the compound CCCOc1ccc2nc(NC(=O)OC)sc2c1 [Tioxidazole] is ____.
-55.6

Entry Oc1cccc[c]1[Hg][Cl] [MERCUFENOL CHLORIDE] has what efficacy?
-83.5

Value lookup for efficacy; key = O=C(Nc1ccc([N+](=O)[O-])cc1Cl)c1cc(Cl)ccc1O [Niclosamide]
-41.1

Any idea what its efficacy is? The compound is CCNC(=O)[C@@H]1CCCN1C(=O)[C@H](CCCNC(=N)N)NC(=O)[C@H](CC(C)C)NC(=O)[C@@H](Cc1c[nH]c2ccccc12)NC(=O)[C@H](Cc1ccc(O)cc1)NC(=O)[C@H](CO)NC(=O)[C@H](Cc1c[nH]c2ccccc12)NC(=O)[C@H](Cc1c[nH]cn1)NC(=O)[C@@H]1CCC(=O)N1 [DESLORELIN ACETATE]
-88.5
